# IC50 per entry for Protease (Human immunodeficiency virus 1)
Please respond with the number in nM and leave the unit unwritten.

// solved cases for IC50 follow
[
  {
    "molecule.smiles": "CC(C)CN(C[C@@H](O)[C@H](Cc1ccccc1)NC(=O)CN[C@H]1CCOC1)S(=O)(=O)c1ccc(CO)cc1",
    "quantity.unit": "nM",
    "IC50": 10.2
  },
  {
    "molecule.smiles": "COc1ccc(S(=O)(=O)N(CC(C)C)C[C@@H](O)[C@H](Cc2ccccc2)NC(=O)CN[C@H]2CCOC2)cc1",
    "quantity.unit": "nM",
    "IC50": 2.23
  },
  {
    "molecule.smiles": "CC(C)CN(C[C@@H](O)[C@H](Cc1ccccc1)NC(=O)CN(CC(=O)N(C)C)[C@H]1CCOC1)S(=O)(=O)c1ccc([N+](=O)[O-])cc1",
    "quantity.unit": "nM",
    "IC50": 270
  },
  {
    "molecule.smiles": "COCCN(CC(=O)N[C@@H](Cc1ccccc1)[C@H](O)CN(CC(C)C)S(=O)(=O)c1ccc(OC(F)(F)F)cc1)[C@H]1CCOC1",
    "quantity.unit": "nM",
    "IC50": 68
  },
  {
    "molecule.smiles": "COCCN(CC(=O)N[C@@H](Cc1ccccc1)[C@H](O)CN(CC(C)C)S(=O)(=O)c1ccc2c(c1)OCO2)[C@@H]1CCOC1",
    "quantity.unit": "nM",
    "IC50": 6
  }
]

Prompt: What IC50 appears in the records for this compound with Protease (Human immunodeficiency virus 1)? COc1ccc(S(=O)(=O)N(CC(C)C)C[C@@H](O)[C@H](Cc2ccccc2)NC(=O)CN(CC(N)=O)[C@H]2CCOC2)cc1
Sequence (Q9YQ12 whole entry): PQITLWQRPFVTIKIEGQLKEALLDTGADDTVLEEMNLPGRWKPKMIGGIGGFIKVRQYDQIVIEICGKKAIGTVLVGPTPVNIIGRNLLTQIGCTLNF
Completion: 20.4

Prompt: What IC50 appears in the records for this compound with Protease (Human immunodeficiency virus 1)? CC(C)CN(C[C@@H](O)[C@H](Cc1ccccc1)NC(=O)CN(CC(=O)N(C)C)[C@H]1CCOC1)S(=O)(=O)c1ccc(N)cc1
Completion: 38

Prompt: What IC50 appears in the records for this compound with Protease (Human immunodeficiency virus 1)? COCCN(CC(=O)N[C@@H](Cc1ccccc1)[C@H](O)CN(CC(C)C)S(=O)(=O)c1ccc(OC)cc1)[C@@H]1CCOC1
Completion: 6.85

Prompt: What IC50 appears in the records for this compound with Protease (Human immunodeficiency virus 1)? CC(C)CN(C[C@@H](O)[C@H](Cc1ccccc1)NC(=O)CN[C@H]1CCOC1)S(=O)(=O)c1ccc([N+](=O)[O-])cc1
Completion: 46.3
